ASSAY_NOTES: protein stability index of a GFP-peptide fusion (GPS, HEK-293T) (PSI 1-6); higher = more stable;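 note: 24-mer peptide tiles fused after GFP, lentivirally expressed, FACS-sorted into six equal bins by GFP/DsRed ratio, decoded by Illumina sequencing, PSI is the read-weighted mean bin number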
RUN_CONDITIONS: treatment: DMSO; c terminus: a fixed tail appended
Would you mind labelling by protein stability index? At or over 4 is label 1, under is label 0.

Query: Tell me whether protein stability index is at least 4 here: AAESPDPPQSPQGASSLPTTMNYP [MAGEA3]
Reply: label 1

Query: Tell me whether protein stability index is at least 4 here: HFLENLDKSRKGELLKKSDLQKDF [PRIM1]
Reply: label 0

Query: Tell me whether protein stability index is at least 4 here: CLGQLNLEQRSESVRRTRSKIGFG [SMAD6]
Reply: label 0

Query: Tell me whether protein stability index is at least 4 here: HLTKKDLRVHLKMVDSFHRTSLQY [PPFIA4]
Reply: label 0

Query: Tell me whether protein stability index is at least 4 here: AGNNEHCGNIKAPSLQAWNDAPCD [CD207]
Reply: label 1

Query: Tell me whether protein stability index is at least 4 here: MASQSQGIQQLLQAEKRAAEKVSE [ATP6V1G1]
Reply: label 1

Query: Tell me whether protein stability index is at least 4 here: ISHQQCWASTSPGTDLPLSEIPRG [TRIM15]
Reply: label 0

Query: Tell me whether protein stability index is at least 4 here: VWNRKLDLLCKTSHLSDTGISALV [WDR41]
Reply: label 0

Query: Tell me whether protein stability index is at least 4 here: NFLFRNAASTLTERPCYNRRASKL [ANKRD40]
Reply: label 0

Query: Tell me whether protein stability index is at least 4 here: ERYMCSRFFIDFPHIEEQQKKIES [TENT5D]
Reply: label 0

Query: Tell me whether protein stability index is at least 4 here: VQQDPALSSNREAHQHRDKMQQSK [CSNK1G3]
Reply: label 1

Query: Tell me whether protein stability index is at least 4 here: SAAHEVELQRQKEAEKLERQLALP [NOP53]
Reply: label 1

Query: Tell me whether protein stability index is at least 4 here: PNLVNLIEVFRRKRKMHLVFEYCD [CDKL4]
Reply: label 0

Query: Tell me whether protein stability index is at least 4 here: TGEIMHALKMTWHVHCFTCAACKT [PDLIM7]
Reply: label 0

Query: Tell me whether protein stability index is at least 4 here: RIHSGEKPYECNECGKAFSQSSYL [ZNF232]
Reply: label 0

Query: Tell me whether protein stability index is at least 4 here: RQDSPSPDFYKQSSPNLQVSSDGT [PCDHGC5]
Reply: label 1

Query: Tell me whether protein stability index is at least 4 here: VSRLTDTTKFTGSHKERFDPSGKG [TPPP]
Reply: label 1

Query: Tell me whether protein stability index is at least 4 here: TVCGDLHGQLDDLIFIFYKNGLPS [PPEF2]
Reply: label 0
